Reference source: ChEMBL document CHEMBL1157539

tested on: Plasmodium falciparum; assay: GSK_TCMDC: Inhibition of Plasmodium falciparum Dd2 in whole red blood cells, using parasite LDH activity as an index of growth. Test compounds present at 2uM; format: functional
So I've got a bunch of compounds here, and I need their Inhibition values.
Output should be the measured figure followed by the unit it is expressed in.

Consider the compound "CCN(CC)c1ccc2nc(N)nc(N)c2c1.Cl" and give its measured Inhibition.
0%

Consider the compound "COc1cc2nc(NCCN3CCOCC3)n3nc(-c4ccccc4)nc3c2cc1OC" and give its measured Inhibition.
98%

Consider the compound "CS(=O)(=O)CCNCc1nc(-c2ccc3ncnc(Nc4ccc(OCc5cccc(F)c5)c(Cl)c4)c3c2)cs1.Cl" and give its measured Inhibition.
34%

Consider the compound "CC(=O)Nc1cccc(C(=O)Nc2ccc(-c3cccc(-c4nc5cccc(C)c5[nH]4)c3)cc2)c1" and give its measured Inhibition.
50%

Consider the compound "Cc1cccc2nc(-c3ccc(-c4cccc(CN5CCN(CCO)CC5)c4)cc3)[nH]c12.O=C(O)C(F)(F)F" and give its measured Inhibition.
55%

Consider the compound "COc1ccc2c(NN=Cc3ccc(F)cc3)ccnc2c1" and give its measured Inhibition.
99%

Consider the compound "Cc1nc(Nc2cc(Cl)ccc2O)nc(Nc2cc(Cl)ccc2O)c1[N+](=O)[O-]" and give its measured Inhibition.
83%

Consider the compound "O=C(Nc1ccc(Cn2nc(Cl)c(N3CCNCC3)cc2=O)cc1)Nc1ccc(-c2ccccc2)cc1.O=C(O)C(F)(F)F" and give its measured Inhibition.
49%

Consider the compound "Cc1cc(=NN=Cc2cccc(F)c2)c2ccc(F)cc2[nH]1" and give its measured Inhibition.
99%

Consider the compound "Cc1nc2nc(N)nc(N)c2c(C)c1Cc1ccccc1I.Cl" and give its measured Inhibition.
0%

Consider the compound "Cc1ccc2nc(-c3ccc(C(=O)NC4CCN(Cc5ccccc5)CC4)cc3)[nH]c2c1C" and give its measured Inhibition.
46%

Consider the compound "CN(C)c1nc2cc(-n3cnc4cc(-c5ccc(Cl)cc5)sc4c3=O)ccc2n1CCCN1CCCC1.O=C(O)C(F)(F)F" and give its measured Inhibition.
73%

Consider the compound Cc1noc(C)c1C(=O)N1CCCC(c2[nH]c3c(C)cccc3c2-c2ccncc2)C1.Cl (stereo not drawn) and give its measured Inhibition.
100%

Consider the compound "Cc1c(OC(C)C)nc2ccccc2c1C(=O)N[C@H](c1cccc(F)c1)C1CC1" and give its measured Inhibition.
34%

Consider the compound "CCn1ncc2c(N3CCCC3=O)cc(C(=O)N[C@@H](Cc3ccccc3)[C@H](O)CNC(C)(C)c3cccc(C(F)(F)F)c3)cc21" and give its measured Inhibition.
99%

Consider the compound "CCCCCc1ccc(NC(=O)Nc2ccc(Cn3ncc(N4CCCNCC4)c(Cl)c3=O)cc2)cc1.O=C(O)C(F)(F)F" and give its measured Inhibition.
23%

Consider the compound "CN(CCCCCNC(=O)/C=C/c1ccc(Cl)c(Cl)c1)CCc1c[nH]c2ccccc12" and give its measured Inhibition.
18%

Consider the compound "CCOC(=O)NC1=NC(C)(C)N(OCCCOc2cc(Cl)c(Cl)cc2Cl)C(NC(=O)OCC)=N1" and give its measured Inhibition.
97%

Consider the compound "CO/C(=C\C=C\c1cc2cc(Cl)c(Cl)cc2[nH]1)C(=O)NCCCN1CCN(c2cccc(CCCO)c2)CC1" and give its measured Inhibition.
36%

Consider the compound "Brc1ccc(Nc2nc3ccccc3nc2Nc2ccc(Br)cc2)cc1" and give its measured Inhibition.
100%

Consider the compound "CNc1nc(Nc2ccccc2C)nc2ccccc12.Cl" and give its measured Inhibition.
81%

Consider the compound "CN1CC[C@@H](Oc2cc(C(=O)NCc3ccc(Cl)c(Cl)c3)ccc2C(F)(F)F)C1.Cl" and give its measured Inhibition.
4%

Consider the compound "O=C(/C=C/c1ccc(Cl)c(Cl)c1)NCCCCCN1CCC(NC(=O)c2cccc(Cl)c2)CC1" and give its measured Inhibition.
23%

Consider the compound "COC(=O)CCCCOc1cc(Cc2cnc(N)nc2N)cc(OC)c1OC" and give its measured Inhibition.
0%

Consider the compound "Cc1[nH]c(C)c(-c2ccc(OCc3ccccc3C(F)(F)F)nc2)c(=O)c1Br" and give its measured Inhibition.
97%

Consider the compound "Cc1cc(CNCCCCCCCNCc2ccc(-c3ccccc3)cc2)ccc1O" and give its measured Inhibition.
6%

Consider the compound "COc1ccc(CCNCCCCCNCCc2ccc(Cl)cc2)cc1OC.Cl" and give its measured Inhibition.
0%

Consider the compound "N#Cc1ccc2c(c1)CCN(CCCn1c(-c3ccc4ccccc4c3)nc3ccncc31)CC2" and give its measured Inhibition.
97%

Consider the compound N#Cc1ccc(N/C(=N\c2ccc(-c3ccccc3)cc2)NC2CCCc3ccccc32)c(O)c1 (stereo not drawn) and give its measured Inhibition.
98%

Consider the compound "CCc1cn2c3c(cc(C(=O)N[C@@H](Cc4ccccc4)[C@H](O)CNC4CCCCC4)cc13)N(CC)S(=O)(=O)CC2.O=CO" and give its measured Inhibition.
98%

Consider the compound "COc1cc(C(=O)NC2CC(C)(C)NC(C)(C)C2)ccc1-c1cc2cc(Cl)c(Cl)cc2[nH]1.O=C(O)C(F)(F)F" and give its measured Inhibition.
31%

Consider the compound "CNC(=O)CC(=O)NCCc1ccc(Cl)cc1" and give its measured Inhibition.
1%

Consider the compound "O=C(Nc1ccc(CCN2CCC(c3nc(COCC(F)(F)F)c(-c4ccccc4)o3)CC2)cc1)c1ccc(F)cc1" and give its measured Inhibition.
3%

Consider the compound Oc1ccc(Br)cc1C(O)CNCc1ccccc1OCc1ccccc1 (stereo not drawn) and give its measured Inhibition.
100%

Consider the compound "O=S(=O)(c1cc(Cl)ccc1Cl)N1CCCCC(c2ccc(C(F)(F)F)cc2)=N1" and give its measured Inhibition.
68%

Consider the compound "CCOC(=O)C1CCN(CCOc2cc(NC(=O)/C=C/c3ccccc3Cl)ccc2Br)CC1.O=C(O)C(=O)O" and give its measured Inhibition.
29%

Consider the compound "CN(C)CCOc1ccc(-n2c(-c3nonc3N)nc3cncc(-c4ccc(F)cc4)c32)cc1" and give its measured Inhibition.
7%

Consider the compound "Cc1ccc(Nc2nc(C)cc(N3CCN(CCc4ccccc4)CC3)n2)cc1" and give its measured Inhibition.
6%
